MIC tested on Cryptococcus neoformans: recorded values
Report only the number, with the unit mg/L understood.

As a guide, the following entries are already answered.
> print(dat)
                                   molecule  measured.metric  value.unit  quantitative.readout
1  OC(Cn1cncn1)(Cn1cncn1)c1ccc(F)cc1F [Fluconazole, reference compound]              MIC        mg/L                     8
2  C[C@@H](n1cc(-c2cccc(Cl)c2)cn1)[C@](O)(Cn1cncn1)c1ccc(F)cc1F [Example 9]              MIC        mg/L                  0.25
3  C[C@@H](n1cc(-c2ccccc2F)cn1)[C@](O)(Cn1cncn1)c1ccc(F)cc1F [Example 3]              MIC        mg/L                 0.125
4  C[C@@H](n1cc(-c2cccc(F)c2)cn1)[C@](O)(Cn1cncn1)c1ccc(F)cc1F [Example 8]              MIC        mg/L                 0.031

Req: Look up Cryptococcus neoformans data: MIC of C[C@@H](n1cc(-c2ccc(Cl)cc2)cn1)[C@](O)(Cn1cncn1)c1ccc(F)cc1F [Example 14] , then report it.
Resp: 0.25

Req: Give measured MIC for C[C@@H](n1cc(-c2ccc(Br)cc2)cn1)[C@](O)(Cn1cncn1)c1ccc(F)cc1F [Example 15] (Cryptococcus neoformans).
Resp: 0.125

Req: State recorded MIC with Cryptococcus neoformans, entry C[C@@H](n1cc(-c2ccc([N+](=O)[O-])cc2)cn1)[C@](O)(Cn1cncn1)c1ccc(F)cc1F [Example 17] , no comment.
Resp: 0.031

###

Consider molecules characterized by their MIC with Aspergillus flavus.
Answer in µg/mL, number only, no unit symbol.

Some solved cases for reference:
> print(dat)
                           substance.smiles  measured.metric  quantitative.readout
1  C[C@@H](n1cc(-c2ccc(Cl)cc2)cn1)[C@](O)(Cn1cncn1)c1ccc(F)cc1F              MIC                     4
2  C[C@@H](n1cc(-c2ccc([N+](=O)[O-])cc2)cn1)[C@](O)(Cn1cncn1)c1ccc(F)cc1F              MIC                     8
3  C[C@@H](n1cc(-c2cccc(Cl)c2)cn1)[C@](O)(Cn1cncn1)c1ccc(F)cc1F              MIC                     8
4  C[C@@H](n1cc(-c2ccccc2F)cn1)[C@](O)(Cn1cncn1)c1ccc(F)cc1F              MIC                     4
5  C[C@@H](n1cc(-c2ccc(Br)cc2)cn1)[C@](O)(Cn1cncn1)c1ccc(F)cc1F              MIC                     4

Next molecule, MIC to be filled in.
Req: Report MIC under test system Aspergillus flavus for C[C@@H](n1cc(-c2cccc(F)c2)cn1)[C@](O)(Cn1cncn1)c1ccc(F)cc1F .
Resp: 8

###

What follows is a collection of MIC values obtained with Candida parapsilosis.

Known results for molecules:
> print(dat)
                                   molecule         result
1  OC(Cn1cncn1)(Cn1cncn1)c1ccc(F)cc1F [Fluconazole, reference compound]      > 8 µg/mL
2  C[C@@H](n1cc(-c2cccc(Cl)c2)cn1)[C@](O)(Cn1cncn1)c1ccc(F)cc1F  ≤ 0.015 µg/mL
3  C[C@@H](n1cc(-c2cccc(F)c2)cn1)[C@](O)(Cn1cncn1)c1ccc(F)cc1F  ≤ 0.015 µg/mL
4  C[C@@H](n1cc(-c2ccc(Br)cc2)cn1)[C@](O)(Cn1cncn1)c1ccc(F)cc1F  ≤ 0.015 µg/mL
5  C[C@@H](n1cc(-c2ccc([N+](=O)[O-])cc2)cn1)[C@](O)(Cn1cncn1)c1ccc(F)cc1F  ≤ 0.015 µg/mL
6  C[C@@H](n1cc(-c2ccccc2F)cn1)[C@](O)(Cn1cncn1)c1ccc(F)cc1F    0.031 µg/mL

Req: # assay system Candida parapsilosis: give MIC of C[C@@H](n1cc(-c2ccc(Cl)cc2)cn1)[C@](O)(Cn1cncn1)c1ccc(F)cc1F
Resp: ≤ 0.015 µg/mL

###

tested on: Aspergillus fumigatus
Item-by-item account of MIC

> print(dat)
                                   compound  measured.metric   result
1  C[C@@H](n1cc(-c2ccc([N+](=O)[O-])cc2)cn1)[C@](O)(Cn1cncn1)c1ccc(F)cc1F              MIC  2 µg/mL
2  C[C@@H](n1cc(-c2ccc(Br)cc2)cn1)[C@](O)(Cn1cncn1)c1ccc(F)cc1F              MIC  1 µg/mL

# context switch: different compound, same MIC
Req: Indicate the recorded MIC value for this compound: OC(Cn1cncn1)(Cn1cncn1)c1ccc(F)cc1F [Fluconazole, reference compound]
Resp: > 128 µg/mL

###

The reader will find MIC measurements below, all made with Aspergillus fumigatus.
Kindly answer with a numeric value in mg/L, unit omitted.

> print(dat)
                           substance.smiles  measured.metric  quantitative.readout
1  C[C@@H](n1cc(-c2cccc(Cl)c2)cn1)[C@](O)(Cn1cncn1)c1ccc(F)cc1F              MIC                     2
2  C[C@@H](n1cc(-c2ccc(Cl)cc2)cn1)[C@](O)(Cn1cncn1)c1ccc(F)cc1F              MIC                     1
3  C[C@@H](n1cc(-c2ccccc2F)cn1)[C@](O)(Cn1cncn1)c1ccc(F)cc1F              MIC                   0.5

Consider the record given below.
Req: Give MIC for C[C@@H](n1cc(-c2cccc(F)c2)cn1)[C@](O)(Cn1cncn1)c1ccc(F)cc1F tested on Aspergillus fumigatus.
Resp: 1

###

tested on: Candida glabrata
Examples of compounds with documented MIC follow.
The figure you give is taken to be in µg/mL; do not add the unit.

Answered examples (5):
> print(dat)
                                   compound  quantitative.readout
1  C[C@@H](n1cc(-c2ccccc2F)cn1)[C@](O)(Cn1cncn1)c1ccc(F)cc1F [Example 3]                     2
2  C[C@@H](n1cc(-c2ccc(Cl)cc2)cn1)[C@](O)(Cn1cncn1)c1ccc(F)cc1F [Example 14]                     2
3  C[C@@H](n1cc(-c2ccc([N+](=O)[O-])cc2)cn1)[C@](O)(Cn1cncn1)c1ccc(F)cc1F [Example 17]                     4
4  C[C@@H](n1cc(-c2cccc(F)c2)cn1)[C@](O)(Cn1cncn1)c1ccc(F)cc1F [Example 8]                     2
5  C[C@@H](n1cc(-c2ccc(Br)cc2)cn1)[C@](O)(Cn1cncn1)c1ccc(F)cc1F [Example 15]                     2

As a next step, examine the compound that follows.
Req: Would you please give the reported MIC of C[C@@H](n1cc(-c2cccc(Cl)c2)cn1)[C@](O)(Cn1cncn1)c1ccc(F)cc1F [Example 9] with Candida glabrata?
Resp: 1
